test system: Pseudomonas aeruginosa; experiment: Antibacterial activity against Pseudomonas aeruginosa ATCC 27853 assessed as decrease in bacterial growth at 0.25 to 4 mg/L in presence of lung surfactant by broth microdilution assay; type: functional, organism-based; details: dose 0.25-4 mg/L
Calls of active or inactive are those of the source. No cut-off for these calls is given here. Where a SMILES comes first, the peptide text is derived from it. Bridges are numbered along the chain shown (N, C = ends). [ ]: non-standard residue; d: D form. The star is where a group is joined. X1 = CC[C@H](C)CCCCC(=O)*; dDab = NCC[C@@H](N)C(=O)O; Dab = NCC[C@H](N)C(=O)O
Parameter call: string, one of active, inactive

Worked set:
- molecule: "CCCCCC(=O)N[C@@H](CCN)C(=O)N[C@@H](C(=O)N[C@@H](CCN)C(=O)N[C@H]1CCNC(=O)[C@@H]([C@H](C)O)NC(=O)[C@H](CCN)NC(=O)[C@H](CCN)NC(=O)[C@H]([C@H](C)O)NC(=O)[C@@H](CC(C)C)NC(=O)[C@H](CCN)NC1=O)[C@H](C)O"
  qualitative-label: "inactive"
- molecule: "CC[C@H](C)CCCCC(=O)N[C@@H](CCN)C(=O)N[C@H](C(=O)N[C@@H](CCN)C(=O)N[C@H]1CCNC(=O)[C@H]([C@@H](C)O)NC(=O)[C@H](CCN)NC(=O)[C@H](CCN)NC(=O)[C@H]([C@@H](C)O)NC(=O)[C@@H](CC(C)C)NC(=O)[C@H](CCN)NC1=O)[C@@H](C)O (X1-[Dab]T[Dab][Dab][Dab][dL]T[Dab][Dab]T; lactam 4-C)"
  qualitative-label: "active"
- molecule: "CC[C@H](C)CCCCC(=O)N[C@@H](CCN)C(=O)N[C@H](C(=O)N[C@H](CCN)C(=O)N[C@H]1CCNC(=O)[C@H]([C@@H](C)O)NC(=O)[C@H](CCN)NC(=O)[C@H](CCN)NC(=O)[C@H]([C@@H](C)O)NC(=O)[C@@H](CC(C)C)NC(=O)[C@H](CCN)NC1=O)[C@@H](C)O (X1-[Dab]T[dDab][Dab][Dab][dL]T[Dab][Dab]T; lactam 4-C)"
  qualitative-label: "active"
- molecule: "CCCCCCCCCC(=O)N[C@@H](CCN)C(=O)N[C@H](C(=O)N[C@@H](CCN)C(=O)N[C@H]1CCNC(=O)[C@H]([C@@H](C)O)NC(=O)[C@H](CCN)NC(=O)[C@H](CCN)NC(=O)[C@H]([C@H](C)O)NC(=O)[C@@H](CC(C)C)NC(=O)[C@H](CCN)NC1=O)[C@@H](C)O"
  qualitative-label: "active"

Consider now this further molecule.
Prompt: In this assay, the call recorded for CC[C@H](C)CCCCC(=O)N[C@@H](CCN)C(=O)N[C@H](C(=O)N[C@@H](CCN)C(=O)N[C@H]1CCNC(=O)[C@H]([C@@H](C)O)NC(=O)[C@H](CCN)NC(=O)[C@H](CCN)NC(=O)[C@H](CC(C)C)NC(=O)[C@@H](Cc2ccccc2)NC(=O)[C@H](CCN)NC1=O)[C@@H](C)O (X1-[Dab]T[Dab][Dab][Dab][dF]L[Dab][Dab]T; lactam 4-C) was what?
Completion: active
